The following compounds are listed with their measured pIC50 values.
Target: cyclic GMP specific phosphodiesterase (PDE 5) (Homo sapiens)
Construct: isolated from human platelet lysates by ion exchange chromatography using a Mono-Q column
Protocol notes: PDE 5 inhibitory activity, enzyme isolated from human platelet lysates
Experimental setup: PDE 5 from human platelet lysates; 0.25 mM [3H]-cyclic GMP as substrate; read-out: IC50 PDE5
pIC50: −log10 of the molar value.
Quantity: pIC50

>>> df
                         compound_structure  obs_value
0  CCCOc1ccc(S(=O)(=O)N2CCN(C)CC2)cc1-c1cc2c([nH]1)c(=O)n(C)c(=O)n2CCC       7.85
1  CCCOc1ccc(S(=O)(=O)N2CCN(CCCO)CC2)cc1-c1[nH]c2c(=O)n(C)c(=O)n(CCC)c2c1Br       8.40
2  CCCOc1ccc(S(=O)(=O)N2CCN(CCO)CC2)cc1-c1[nH]c2c(=O)n(C)c(=O)n(CCC)c2c1Cl       8.47
3  CCCn1c(=O)n(C)c(=O)c2[nH]c(-c3cc(S(=O)(=O)N4CCN(CCCO)CC4)ccc3OCC)c(Br)c21       8.04
4  CCCOc1ccc(S(=O)(=O)N2CCN(C)CC2)cc1-c1[nH]c2c(=O)n(C)c(=O)n(CCC)c2c1Br       8.35
5  CCCOc1ccc(S(=O)(=O)N2CCN(CCO)CC2)cc1-c1[nH]c2c(=O)n(C)c(=O)n(CCC)c2c1Br       8.18
6  CCCOc1ccc(S(=O)(=O)N2CCN(C)CC2)cc1-c1[nH]c2c(=O)n(C)c(=O)n(CCC)c2c1Cl       8.38
7  CCCOc1ccc(S(=O)(=O)N2CCN(CC)CC2)cc1-c1[nH]c2c(=O)n(C)c(=O)n(CCC)c2c1Cl       8.44
8  CCCOc1ccc(S(=O)(=O)N2CCN(CC)CC2)cc1-c1cc2c([nH]1)c(=O)n(C)c(=O)n2CCC       8.10
9  CCCn1c(=O)n(C)c(=O)c2[nH]c(-c3cc(S(=O)(=O)N4CCN(C)CC4)ccc3OCC)c(Cl)c21       8.47
